- Tgt: T1, human IL-12 (human, UniProt P29460 23-328; P29459 23-219)
- T1 construct: also called Interleukin-12
- T1 sequence 1: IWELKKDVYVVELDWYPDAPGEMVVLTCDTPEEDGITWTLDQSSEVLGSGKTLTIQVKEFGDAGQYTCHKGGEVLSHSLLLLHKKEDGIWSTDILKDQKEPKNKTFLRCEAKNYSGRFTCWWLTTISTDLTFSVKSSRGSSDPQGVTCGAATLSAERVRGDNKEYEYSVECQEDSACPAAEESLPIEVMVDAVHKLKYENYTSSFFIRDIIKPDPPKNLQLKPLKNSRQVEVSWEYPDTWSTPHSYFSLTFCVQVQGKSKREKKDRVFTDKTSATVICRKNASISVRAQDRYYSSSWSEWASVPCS
- T1 sequence 2: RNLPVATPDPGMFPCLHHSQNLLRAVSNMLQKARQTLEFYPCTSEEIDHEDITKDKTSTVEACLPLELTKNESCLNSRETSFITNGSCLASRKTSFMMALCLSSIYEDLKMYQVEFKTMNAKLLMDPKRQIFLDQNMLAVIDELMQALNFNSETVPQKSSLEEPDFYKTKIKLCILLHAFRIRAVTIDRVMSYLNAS
- Assay protocol: SPR (Biacore T200), 37 C, pH 7.4; captured antibody, IL-12 analyte
Measurement name: Kd (nM)

[[record]]
binder = "Anti-IL-12 antibody Ab1 variant V37Q VH/- (antibody, name in Kabat numbering, V domains shown, Ab1 with VH/VL interface substitutions; Kabat numbering) VH: QVQLVQSGAEVKKPGSSVKVSCKASGGTFSDYYLHWQRQAPGQGLEWMGWIDPENGDTEYAPKFQGRVTITADESTSTAYMELSSLRSEDTAVYYCARNKELRYFDVWGQGTLVTVSS VL: DIVMTQSPLSLPVTPGEPASISCRASQSISINLHWYQQKPGQAPRLLIYFASQSISGVPSRFSGSGSGTDFTLTISSLQPEDFATYYCQQSNSFPLTFGQGTKVEIKR"
measurement_name = "Kd"
measurement_units = "nM"
test_result = 1.48

[[record]]
binder = "Anti-IL-12 antibody Ab1 variant F100aI VH/Y49A, Y87L VL (antibody, name in Kabat numbering, V domains shown, Ab1 with VH/VL interface substitutions; Kabat numbering) VH: QVQLVQSGAEVKKPGSSVKVSCKASGGTFSDYYLHWVRQAPGQGLEWMGWIDPENGDTEYAPKFQGRVTITADESTSTAYMELSSLRSEDTAVYYCARNKELRYIDVWGQGTLVTVSS VL: DIVMTQSPLSLPVTPGEPASISCRASQSISINLHWYQQKPGQAPRLLIAFASQSISGVPSRFSGSGSGTDFTLTISSLQPEDFATYLCQQSNSFPLTFGQGTKVEIKR"
measurement_name = "Kd"
measurement_units = "nM"
test_result = 2.1

[[record]]
binder = "Anti-IL-12 antibody Ab1 variant -/P44Q VL (antibody, V domains shown, Ab1 with VH/VL interface substitutions; Kabat numbering) VH: QVQLVQSGAEVKKPGSSVKVSCKASGGTFSDYYLHWVRQAPGQGLEWMGWIDPENGDTEYAPKFQGRVTITADESTSTAYMELSSLRSEDTAVYYCARNKELRYFDVWGQGTLVTVSS VL: DIVMTQSPLSLPVTPGEPASISCRASQSISINLHWYQQKPGQAQRLLIYFASQSISGVPSRFSGSGSGTDFTLTISSLQPEDFATYYCQQSNSFPLTFGQGTKVEIKR"
measurement_name = "Kd"
measurement_units = "nM"
test_result = 0.94

